- system under test: T1, Human IL-2 (human, UniProt P60568 21-153)
- T1 construct: Soluble analyte in the SPR experiments; also called hIL-2; recombinant human IL-2
- T1 sequence (P60568 21-153 limits assumed): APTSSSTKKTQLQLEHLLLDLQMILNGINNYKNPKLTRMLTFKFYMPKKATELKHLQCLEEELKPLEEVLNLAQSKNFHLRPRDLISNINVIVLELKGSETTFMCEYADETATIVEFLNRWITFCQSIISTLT
- procedure summary: SPR, multi-cycle, antibody captured, hIL-2 analyte
reported property: pKd
Note on units: pKd is unitless, being -log10 of a concentration expressed in mol/L.

Prompt: Recorded pKd of BDG17.038 (antibody, V domains shown, Humanized IgG1) VH: QVQLVQSGAEVKKPGSSVKVSCKASGYSITDSLIHWVRQAPGQGLEWMGWIDPEDGEINYAQKFQGRVTLTADTSTSTAYMELSSLRSEDTAVYYCARSLDSYPIDPFAYWGQGTLVTVSS VL: DIVMTQSPDSLAVSLGERATINCKSSQSLLRNGNQQNYLAWYQQKPGQPPKLLIYYASTGQSGVPDRFSGSGSGTDFTLTISSLQAEDVAVYYCQQHYVTPPTFGAGTKVEIK , please.
Response: 10.69
